# System: HOP-92
# Run description: NCI tumour cell line growth inhibition, 48 h
The source made the active and inactive calls. No stated cut-off is given here; in the data, active = GI50 up to about 1.1 µM and inactive = higher.
Assay readout: GI50

// worked examples, GI50 included
Which GI50 reading was recorded for the compound O=C1C2=C(c3ccccc31)C(c1ccc([N+](=O)[O-])cc1)NC(S)=N2 (stereo not given) ?
51.1 µM (inactive)

Consider the compound shown here: "CC(=O)O[C@H]1C(=O)[C@@]2(C)[C@H]([C@H](OC(=O)c3cccc([N+](=O)[O-])c3)[C@]3(O)C[C@H](OC(=O)[C@H](O)[C@@H](NC(=O)c4ccccc4)c4ccccc4)C(C)=C1C3(C)C)[C@]1(OC(C)=O)CO[C@@H]1C[C@@H]2O" What is its recorded GI50?
0.022 µM (active)

Fill in: GI50 of CC(C)Cc1cc2c(cc1O)CCC1C2CC[C@@]2(C)C1CC[C@@H]2O (stereo not given in full) is ___
10.2 µM (inactive)

Reported GI50 for "CN(C)C(=S)/N=c1\ssc(=S)n1Cc1ccccc1" : what is it?
0.342 µM (active)

Give the measured GI50 of CC1(C)CCCC2(C)[C@@H]1CC[C@]13C[C@](C)(CC[C@@H]21)[C@@H]3CO (stereo not given in full) .
> 100 µM (inactive)

Entry under review: COC(=O)C(Cc1ccccc1I)C1=CCC2(CC1)OCCO2 (stereo not given) . Reported GI50?
28.2 µM (inactive)

For "O=C(/C=C/c1ccc2c(c1)OCO2)NCc1ccco1" , what is its reported GI50?
92.5 µM (inactive)

Fill blank: measured GI50 of the compound "COc1cc2oc(=O)cc(C)c2cc1O" is ____.
46.3 µM (inactive)

As a next step, examine the compound that follows.
# GI50 lookup, item COc1cc(C(C#N)NNC(=O)Cc2ccccc2)cc(OC)c1OC (stereo not given)
95.3 µM (inactive)
